- Assay Summary: in vitro
- Run Parameters: human, Clone V cells

| Compound | Output Unit | viability at 16 h, 30 µM |
| --- | --- | --- |
| CC(=O)O[C@@]12CO[C@@H]1C[C@H](O)[C@@]1(C)C(=O)[C@H](O)C3=C(C)[C@@H](OC(=O)[C@H](O)[C@@H](NC(=O)OC(C)(C)C)c4ccccc4)C[C@@](O)([C@@H](OC(=O)c4ccccc4)[C@H]21)C3(C)C [Docetaxel] | % | 107 |
| COc1cc([C@@H]2c3cc4c(cc3[C@@H](O[C@@H]3O[C@@H]5CO[C@@H](c6cccs6)O[C@H]5[C@H](O)[C@H]3O)[C@H]3COC(=O)[C@H]23)OCO4)cc(OC)c1O [Teniposide] | % | 105 |

###

- Assay System: FGF14:Nav1.6 C-tail complex (Homo sapiens, UniProt Q92915+Q9UQD0)
- Construct: polymerase chain reaction (PCR) amplification of the FGF14 open reading frame (nt 1–855); C-terminal fragment of Nav1.6 (amino acids 1763–1976) fused with CD4ΔC-tail (amino acids 1–395); expressed in transfected cells
- Sequence (Q92915 1-252 isoform Q92915-2): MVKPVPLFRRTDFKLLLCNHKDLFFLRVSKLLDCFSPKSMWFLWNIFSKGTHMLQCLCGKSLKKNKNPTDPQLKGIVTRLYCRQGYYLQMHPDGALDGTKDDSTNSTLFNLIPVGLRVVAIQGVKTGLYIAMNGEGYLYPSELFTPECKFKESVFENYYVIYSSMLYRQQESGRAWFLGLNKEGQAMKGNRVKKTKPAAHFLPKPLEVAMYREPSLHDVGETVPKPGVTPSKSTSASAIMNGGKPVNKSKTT
- Sequence (Q9UQD0 1763-1976 limits assumed): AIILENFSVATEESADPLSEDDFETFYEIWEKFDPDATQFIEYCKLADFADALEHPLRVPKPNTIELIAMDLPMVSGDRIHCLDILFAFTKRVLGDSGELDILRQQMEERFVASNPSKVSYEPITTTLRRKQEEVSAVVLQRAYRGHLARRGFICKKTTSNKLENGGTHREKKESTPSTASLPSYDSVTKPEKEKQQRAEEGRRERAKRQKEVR
- Assay Summary: Split-luciferase complementation assay (LCA) in Clone V double stable HEK293 cells
- Type: cell-based
- Run Parameters: CC_NCI screening; LCA, biological replicate Set 1; normalized to on-plate 0.3% DMSO controls
Threshold-based label: Split Luciferase Assay Z-score Set 1 under -0.8 gives condition met, Split Luciferase Assay Z-score Set 1 not under -0.8 gives condition not met.

| Compound | Assay System | Qualitative Label |
| --- | --- | --- |
| COc1cc(Nc2c(C#N)cnc3cc(OCCCN4CCN(C)CC4)c(OC)cc23)c(Cl)cc1Cl [Bosutinib] | FGF14:Nav1.6 C-tail complex (Homo sapiens, UniProt Q92915+Q9UQD0) | condition met |
| COC1=CC(c2cc3ccccc3[nH]2)=N/C1=C\c1[nH]c(C)cc1C [OBATOCLAX] | FGF14:Nav1.6 C-tail complex (Homo sapiens, UniProt Q92915+Q9UQD0) | condition met |
| C[C@]1(c2nc3c(C(N)=O)cccc3[nH]2)CCCN1 [ABT-888] | FGF14:Nav1.6 C-tail complex (Homo sapiens, UniProt Q92915+Q9UQD0) | condition met |
| COc1cc([C@@H]2c3cc4c(cc3[C@@H](O[C@@H]3O[C@@H]5CO[C@@H](C)O[C@H]5[C@H](O)[C@H]3O)[C@H]3COC(=O)[C@H]23)OCO4)cc(OC)c1O [Etoposide] | FGF14:Nav1.6 C-tail complex (Homo sapiens, UniProt Q92915+Q9UQD0) | condition met |
| FC(F)c1nc2ccccc2n1-c1nc(N2CCOCC2)nc(N2CCOCC2)n1 [ZSTK474] | FGF14:Nav1.6 C-tail complex (Homo sapiens, UniProt Q92915+Q9UQD0) | condition not met |
| CC1=C(/C=C/C(C)=C/C=C/C(C)=C/C(=O)O)C(C)(C)CCC1 [Tretinoin] | FGF14:Nav1.6 C-tail complex (Homo sapiens, UniProt Q92915+Q9UQD0) | condition not met |
| NC(=O)c1ccc(I)c([N+](=O)[O-])c1 [BSI-201] | FGF14:Nav1.6 C-tail complex (Homo sapiens, UniProt Q92915+Q9UQD0) | condition not met |
| COc1cc2ncn(-c3cc(OCc4ccccc4C(F)(F)F)c(C(N)=O)s3)c2cc1OC [GW 843682X] | FGF14:Nav1.6 C-tail complex (Homo sapiens, UniProt Q92915+Q9UQD0) | condition not met |
| CC(C)C[C@H](NC(=O)[C@H](Cc1ccccc1)NC(=O)c1cnccn1)B(O)O [Bortezomib] | FGF14:Nav1.6 C-tail complex (Homo sapiens, UniProt Q92915+Q9UQD0) | condition met |
